system: Escherichia coli TOP10; experiment: shrunken log2 fold change of peptide-encoding DNA abundance (4.5 h post-induction vs induction); higher = less antimicrobial activity (less host growth inhibition); conditions: time post-induction: 4.5 h; library: site-saturation at positions 5, 18, 19, 20
Attribute measured: shrunken log2 fold change
Give only the figure.

Observe how each entry below is paired with its result.
RRIRRRPPRLPRPRPRPPDSPRP	0.289
RRIRVRPPRLPRPRPRPIIQPRP	-0.28
RRIRIRPPRLPRPRPRPDARPRP	0.262

Turning now to a further record.
q: Which shrunken log2 fold change is reported for this sequence? `RRIRVRPPRLPRPRPRPPWNPRP`
a: 0.0143

* * *

Attribute: shrunken log2 fold change
test system: Escherichia coli TOP10; assay: shrunken log2 fold change of peptide-encoding DNA abundance (4.5 h post-induction vs induction); higher = less antimicrobial activity (less host growth inhibition); conditions: time post-induction: 4.5 h; library: site-saturation at positions 5, 18, 19, 20
Keep the answer to the number alone.

Solved entries:
RRIRRRPPRLPRPRPRPSLNPRP	0.00555
RRIRHRPPRLPRPRPRPWLSPRP	-0.0373
RRIRGRPPRLPRPRPRPRRYPRP	0.0823
RRIRWRPPRLPRPRPRPKQPPRP	0.334
RRIRNRPPRLPRPRPRPTHPPRP	-0.235
RRIRERPPRLPRPRPRPMIAPRP	0.121

q: Entry `RRIRNRPPRLPRPRPRPNHQPRP` has what shrunken log2 fold change?
a: -0.241

* * *

system: Escherichia coli TOP10; experiment: shrunken log2 fold change of peptide-encoding DNA abundance (4.5 h post-induction vs induction); higher = less antimicrobial activity (less host growth inhibition); conditions: time post-induction: 4.5 h; library: site-saturation at positions 5, 18, 19, 20
Give true when the value for shrunken log2 fold change is at least 0.2. Give false when it is less.

RRIRVRPPRLPRPRPRPTEYPRP	false
RRIRWRPPRLPRPRPRPCFTPRP	false
RRIRGRPPRLPRPRPRPDWAPRP	true

Now consider a different sequence.
q: Would you say `RRIRLRPPRLPRPRPRPAVSPRP` shows shrunken log2 fold change at minimum 0.2?
a: false

* * *

Recorded shrunken log2 fold change, one value per entry.
tested on: Escherichia coli TOP10; experiment: shrunken log2 fold change of peptide-encoding DNA abundance (4.5 h post-induction vs induction); higher = less antimicrobial activity (less host growth inhibition); conditions: time post-induction: 4.5 h; library: site-saturation at positions 5, 18, 19, 20
The answer should be a number; do not append a unit.

RRIRKRPPRLPRPRPRPYEQPRP	-0.0536
RRIRTRPPRLPRPRPRPCDNPRP	-0.267
RRIRCRPPRLPRPRPRPSSRPRP	-0.459
RRIRCRPPRLPRPRPRPYHNPRP	-1.12
RRIRWRPPRLPRPRPRPQEWPRP	0.248

q: Which value of shrunken log2 fold change has been reported for `RRIRQRPPRLPRPRPRPGNPPRP` in the records?
a: -0.132

* * *

Listed below: shrunken log2 fold change values for each entry.
tested on: Escherichia coli TOP10; assay: shrunken log2 fold change of peptide-encoding DNA abundance (4.5 h post-induction vs induction); higher = less antimicrobial activity (less host growth inhibition); conditions: time post-induction: 4.5 h; library: site-saturation at positions 5, 18, 19, 20
Just the number, please, no unit after it.

RRIRFRPPRLPRPRPRPQRAPRP	0.462
RRIRIRPPRLPRPRPRPPRHPRP	0.166

q: I have this sequence here, `RRIRTRPPRLPRPRPRPEANPRP` , and I need its recorded shrunken log2 fold change.
a: -0.0399

q: Likewise for `RRIRRRPPRLPRPRPRPIQQPRP` ?
a: -0.0495

q: And for `RRIRDRPPRLPRPRPRPTECPRP` ?
a: -0.0183

q: Query `RRIRVRPPRLPRPRPRPLHWPRP` next
a: 0.243

q: Next: `RRIRFRPPRLPRPRPRPNPVPRP`
a: -0.117

q: Ok, now `RRIRHRPPRLPRPRPRPRPYPRP`
a: 0.0624

q: And `RRIRPRPPRLPRPRPRPCNCPRP` ?
a: -0.107

q: Do the same for `RRIRERPPRLPRPRPRPRQQPRP` please
a: 0.357

q: Entry to check: `RRIRMRPPRLPRPRPRPKRPPRP`
a: 0.85

q: Do the same for `RRIRFRPPRLPRPRPRPGCNPRP` please
a: -0.292

q: Quick one: `RRIRARPPRLPRPRPRPCLGPRP`
a: 0.0637

q: What would you report for `RRIRHRPPRLPRPRPRPGQDPRP` ?
a: 0.0217

q: And for `RRIRERPPRLPRPRPRPVFNPRP` ?
a: -0.329

q: Also need `RRIRSRPPRLPRPRPRPPIRPRP` , thanks.
a: 0.129

q: `RRIRMRPPRLPRPRPRPELWPRP` , same question.
a: 3.17

q: Another sequence: `RRIRTRPPRLPRPRPRPCAKPRP`
a: 0.423

q: Subsequent entry: `RRIRCRPPRLPRPRPRPSHNPRP`
a: -0.628

q: Same question, `RRIRTRPPRLPRPRPRPTMMPRP` this time
a: -0.14

* * *

system: Escherichia coli TOP10; test: shrunken log2 fold change of peptide-encoding DNA abundance (4.5 h post-induction vs induction); higher = less antimicrobial activity (less host growth inhibition); conditions: time post-induction: 4.5 h; library: site-saturation at positions 5, 18, 19, 20
Attribute measured: shrunken log2 fold change
# output: bare number, no unit

RRIRERPPRLPRPRPRPTFDPRP	-0.066
RRIRCRPPRLPRPRPRPALNPRP	0.179
RRIRYRPPRLPRPRPRPQATPRP	-0.108
RRIRFRPPRLPRPRPRPSFLPRP	-0.572

q: Please give the measured shrunken log2 fold change for this sequence: `RRIRDRPPRLPRPRPRPNVHPRP`
a: -0.303

q: Next sequence up: `RRIRVRPPRLPRPRPRPIFTPRP`
a: -0.0783

* * *

system: Escherichia coli TOP10; experiment: shrunken log2 fold change of peptide-encoding DNA abundance (4.5 h post-induction vs induction); higher = less antimicrobial activity (less host growth inhibition); conditions: time post-induction: 4.5 h; library: site-saturation at positions 5, 18, 19, 20
Attribute measured: shrunken log2 fold change
Answer as a number with no unit attached.

RRIRDRPPRLPRPRPRPSKIPRP	-0.381
RRIRFRPPRLPRPRPRPIQFPRP	-0.000317
RRIRHRPPRLPRPRPRPYTSPRP	-0.00159

q: Would you mind telling me what shrunken log2 fold change value was observed for `RRIRMRPPRLPRPRPRPHDPPRP` ?
a: 0.000689

q: Input `RRIRKRPPRLPRPRPRPFVGPRP`
a: -0.0257

q: // next record `RRIRTRPPRLPRPRPRPGDTPRP`
a: -0.0833

* * *

test system: Escherichia coli TOP10; test: shrunken log2 fold change of peptide-encoding DNA abundance (4.5 h post-induction vs induction); higher = less antimicrobial activity (less host growth inhibition); conditions: time post-induction: 4.5 h; library: site-saturation at positions 5, 18, 19, 20
The sequences listed here are annotated with their shrunken log2 fold change.

Example sequences with recorded shrunken log2 fold change:
RRIRDRPPRLPRPRPRPSPCPRP	-0.0819
RRIRRRPPRLPRPRPRPDALPRP	0.23
RRIRNRPPRLPRPRPRPKFVPRP	-0.0126
RRIRKRPPRLPRPRPRPAWYPRP	0.205
RRIRARPPRLPRPRPRPYNDPRP	-1.28
RRIRMRPPRLPRPRPRPNNQPRP	-0.0328

Now let's try a different one.
q: Form field: shrunken log2 fold change recorded for `RRIRERPPRLPRPRPRPVSAPRP` with Escherichia coli TOP10 (enter value)
a: 0.148

* * *

test system: Escherichia coli TOP10; test: shrunken log2 fold change of peptide-encoding DNA abundance (4.5 h post-induction vs induction); higher = less antimicrobial activity (less host growth inhibition); conditions: time post-induction: 4.5 h; library: site-saturation at positions 5, 18, 19, 20
Attribute measured: shrunken log2 fold change
# output: bare number, no unit

// solved cases for shrunken log2 fold change follow
RRIRCRPPRLPRPRPRPKGPPRP	0.348
RRIRYRPPRLPRPRPRPKSIPRP	-0.0776

q: Quick one: shrunken log2 fold change for `RRIRVRPPRLPRPRPRPTWFPRP` ?
a: 0.177

q: Could you do the same for `RRIRDRPPRLPRPRPRPPKQPRP` , please?
a: -0.0537

* * *

tested on: Escherichia coli TOP10; experiment: shrunken log2 fold change of peptide-encoding DNA abundance (4.5 h post-induction vs induction); higher = less antimicrobial activity (less host growth inhibition); settings: time post-induction: 4.5 h; library: site-saturation at positions 5, 18, 19, 20;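 note: peptides expressed intracellularly from a pBAD plasmid library in pooled LB shake-flask culture, induced with 0.3% L-arabinose, DNA abundance read by NGS, three biological replicates, DESeq2 with apeglm shrinkage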
Would you please tag the item T when its shrunken log2 fold change is -0.007 or above, and F when it is below?

RRIRRRPPRLPRPRPRPMQYPRP	F

q: Given the entry `RRIRDRPPRLPRPRPRPCYIPRP` , answer whether its shrunken log2 fold change meets or surpasses -0.007.
a: T

q: Another: `RRIRVRPPRLPRPRPRPIMLPRP`
a: F

q: Record: `RRIRVRPPRLPRPRPRPYVDPRP`
a: F

q: Now this one: `RRIRTRPPRLPRPRPRPFLSPRP`
a: F
